test system: VA-ES-BJ; assay: relative viability vs DMSO control (72 h) (fraction); higher = more viable cells; details: 0.00152 µM
readout.kind: relative viability

Example cases with answers are listed next.
• Cc1cccc(-c2[nH]c(CNc3ccccc3F)nc2-c2ccc3ncnn3c2)n1 = 1.01
• Cc1ccc(C(=O)OCc2ccc([C@@H](CN)C(=O)Nc3ccc4cnccc4c3)cc2)c(C)c1 = 0.998

// batch mode: one relative viability value per listed entry
1. CO[C@H]1C[C@@H]2CC[C@@H](C)[C@@](O)(O2)C(=O)C(=O)N2CCCC[C@H]2C(=O)O[C@H]([C@H](C)C[C@@H]2CC[C@@H](O)[C@H](OC)C2)CC(=O)[C@H](C)/C=C(\C)[C@@H](O)[C@@H](OC)C(=O)[C@H](C)C[C@H](C)/C=C/C=C/C=C/1C
2. COc1cc(OC)cc(N(CCNC(C)C)c2ccc3ncc(-c4cnn(C)c4)nc3c2)c1
3. C[C@@H](Oc1cc(-c2cnn(C3CCNCC3)c2)cnc1N)c1c(Cl)ccc(F)c1Cl
4. C#Cc1cccc(Nc2ncnc3cc(OCCOC)c(OCCOC)cc23)c1
5. Cc1c(F)cc(C(=O)NC2CC2)cc1-c1ccc(C(=O)NCC(C)(C)C)cn1

1: 0.723; 2: 1.06; 3: 1.06; 4: 1.08; 5: 1.07

# lookup: VA-ES-BJ relative viability, key = N#Cc1ccnc(N2C(=O)CC[C@H]2C(=O)N(c2cncc(F)c2)[C@H](C(=O)NC2CC(F)(F)C2)c2ccccc2Cl)c1
1
